The values you see were collected from patent US9193733B2.

- system under test: human JAK1 (a.a. 837-1142) catalytic domain (Homo sapiens)
- Construct: human JAK1 (a.a. 837-1142) and JAK2 (a.a. 828-1132); His tag (N); made in house; host or cells: insect cells (baculovirus)
- Sequence (P23458 849-1154): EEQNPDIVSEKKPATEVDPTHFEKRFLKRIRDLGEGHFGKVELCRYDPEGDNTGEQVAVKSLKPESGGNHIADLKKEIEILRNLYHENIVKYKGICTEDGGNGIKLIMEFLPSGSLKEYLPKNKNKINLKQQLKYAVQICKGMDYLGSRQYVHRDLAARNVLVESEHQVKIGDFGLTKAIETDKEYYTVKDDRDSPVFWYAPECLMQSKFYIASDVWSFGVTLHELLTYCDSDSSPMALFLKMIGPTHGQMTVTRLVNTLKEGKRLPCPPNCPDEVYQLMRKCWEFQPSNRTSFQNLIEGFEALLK
- test method notes: In vitro JAK kinase assay (HTRF, phosphorylation of a biotinylated peptide), JAK1
- Assay type: biochemical
- recorded conditions: 1 mM ATP
// values below are reported IC50
endpoint label: IC50

- sample smiles: "N#CC[C@]1(n2cc(-c3ncnc4[nH]ccc34)cn2)C[C@H](N2CCC(Nc3cc(CN4CCC(F)(F)C4)cc(C(F)(F)F)n3)CC2)C1"
  assay value: "< 20 nM"
- sample smiles: "N#CC[C@]1(n2cc(-c3ncnc4[nH]ccc34)cn2)C[C@H](N2CCC(Nc3cc(CN4CC[C@@H](O)C4)cc(C(F)(F)F)n3)CC2)C1"
  assay value: "< 20 nM"
- sample smiles: "N#CC[C@]1(n2cc(-c3ncnc4[nH]ccc34)cn2)C[C@H](N2CCC(Oc3cc(CCO)cc(C(F)(F)F)n3)CC2)C1"
  assay value: "< 20 nM"
- sample smiles: "N#CC[C@]1(n2cc(-c3ncnc4[nH]ccc34)cn2)C[C@H](N2CCC(Nc3cc(CN[C@H]4C[C@H](O)C4)nc(C(F)(F)F)n3)CC2)C1"
  assay value: "< 20 nM"
- sample smiles: "N#CC[C@]1(n2cc(-c3ncnc4[nH]ccc34)cn2)C[C@H](N2CCC(Oc3cc(CN[C@H]4CCOC4)cc(C(F)(F)F)n3)CC2)C1"
  assay value: "< 20 nM"
- sample smiles: "CC1(C)CN(Cc2cc(NC3CCN([C@H]4C[C@](CC#N)(n5cc(-c6ncnc7[nH]ccc67)cn5)C4)CC3)nc(C(F)(F)F)c2)C1"
  assay value: "< 20 nM"
- sample smiles: "C[C@@H](CO)NCc1cc(OC2CCN([C@H]3C[C@](CC#N)(n4cc(-c5ncnc6[nH]ccc56)cn4)C3)CC2)nc(C(F)(F)F)c1"
  assay value: "< 20 nM"
- sample smiles: "COCCNCc1cc(OC2CCN([C@H]3C[C@](CC#N)(n4cc(-c5ncnc6[nH]ccc56)cn4)C3)CC2)nc(C(F)(F)F)c1"
  assay value: "< 20 nM"
- sample smiles: "CCNCc1cc(N(C)C2CCN([C@H]3C[C@](CC#N)(n4cc(-c5ncnc6[nH]ccc56)cn4)C3)CC2)nc(C(F)(F)F)c1"
  assay value: "< 20 nM"
- sample smiles: "CC1(NCc2cc(OC3CCN([C@H]4C[C@](CC#N)(n5cc(-c6ncnc7[nH]ccc67)cn5)C4)CC3)nc(C(F)(F)F)c2)CC1"
  assay value: "< 20 nM"
- sample smiles: "N#CC[C@]1(n2cc(-c3ncnc4[nH]ccc34)cn2)C[C@H](N2CCC(Nc3cc(CO)nc(C(F)(F)F)n3)CC2)C1"
  assay value: "< 20 nM"
- sample smiles: "CN(c1cc(CO)cc(C(F)(F)F)n1)C1CCN([C@H]2C[C@](CC#N)(n3cc(-c4ncnc5[nH]ccc45)cn3)C2)CC1"
  assay value: "< 20 nM"
